target: Cellular tumor antigen p53 (Homo sapiens); experiment: TOX21_p53_BLA_p2_ratio: Tox21 HCT-116 p53 Agonism Beta-lactamase Assay, Ratio, Phase 2 (AID 2283592)
Records with an inconclusive call do not appear. Activity calls are given as the source filed them. How the source made its calls: active means hit-call score of the fitted dose curve at least 0.9, where 1 is the maximum; inconclusive means response in the unintended direction; inactive means score below 0.9.
MEASURED_PARAMETER: outcome

{"MOL": "CCOc1cc(C=O)ccc1O", "MEASURED_PARAMETER": "outcome", "MEASURED_RESULT": "inactive"}
{"MOL": "CCOc1ccc(N)cc1", "MEASURED_PARAMETER": "outcome", "MEASURED_RESULT": "inactive"}
{"MOL": "CCOP(=O)(OCC)OC(=CCl)c1ccc(Cl)cc1Cl", "MEASURED_PARAMETER": "outcome", "MEASURED_RESULT": "inactive"}
